Attribution: ChEMBL document CHEMBL3351638

assay target: Mineralocorticoid receptor (Homo sapiens)
Sequence (P08235 whole entry): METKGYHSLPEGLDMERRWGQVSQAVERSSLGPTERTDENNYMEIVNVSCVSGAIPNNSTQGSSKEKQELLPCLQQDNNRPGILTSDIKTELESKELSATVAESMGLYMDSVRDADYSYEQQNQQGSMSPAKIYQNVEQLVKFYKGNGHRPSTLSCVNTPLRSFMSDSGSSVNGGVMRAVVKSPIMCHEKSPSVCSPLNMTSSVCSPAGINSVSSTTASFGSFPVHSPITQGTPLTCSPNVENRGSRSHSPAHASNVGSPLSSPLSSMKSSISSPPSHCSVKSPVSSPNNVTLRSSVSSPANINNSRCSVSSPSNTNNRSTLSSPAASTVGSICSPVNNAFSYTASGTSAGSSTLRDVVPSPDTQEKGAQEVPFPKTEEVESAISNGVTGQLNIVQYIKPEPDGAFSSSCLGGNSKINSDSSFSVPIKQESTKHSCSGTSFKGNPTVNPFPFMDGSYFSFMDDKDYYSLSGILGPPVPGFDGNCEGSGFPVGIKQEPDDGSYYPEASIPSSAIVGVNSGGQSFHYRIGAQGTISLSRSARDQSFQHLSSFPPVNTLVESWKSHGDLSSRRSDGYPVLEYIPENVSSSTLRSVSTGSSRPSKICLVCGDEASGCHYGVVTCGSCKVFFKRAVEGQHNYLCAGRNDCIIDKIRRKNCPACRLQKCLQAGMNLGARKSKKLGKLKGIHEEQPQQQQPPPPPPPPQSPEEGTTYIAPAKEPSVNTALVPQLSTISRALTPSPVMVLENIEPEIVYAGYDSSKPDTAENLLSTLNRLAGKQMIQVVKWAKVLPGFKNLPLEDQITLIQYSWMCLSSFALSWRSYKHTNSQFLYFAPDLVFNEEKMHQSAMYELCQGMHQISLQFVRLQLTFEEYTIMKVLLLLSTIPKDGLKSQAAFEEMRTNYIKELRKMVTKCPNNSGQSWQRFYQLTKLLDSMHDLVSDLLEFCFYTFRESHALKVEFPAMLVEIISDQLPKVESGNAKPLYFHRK
measurement protocol: biochemical
Description: Displacement of [3H]aldosterone from human mineralocorticoid receptor expressed in 293 cells after 16 hrs by scintillation counting
Friendly reminder: IC50 below 200 nM is t, at or above is f.

- CCCn1nc(C)c(-c2ccc3c(c2)NC(=O)CO3)c1-c1ccc(F)cc1: t
- Cc1nn(CCC(C)(F)F)c(-c2ccc(F)cc2)c1-c1ccc2c(c1)NC(=O)CO2: t
- Cc1nn(C)c(-c2ccc(F)cc2F)c1-c1ccc2c(c1)NC(=O)CO2: t
- Cc1cc(-c2c(C)nn(C)c2-c2ccc(F)cc2)cc2c1OCC(=O)N2: t
- Cc1onc(-c2ccc3c(c2)NC(=O)CO3)c1-c1ccc(F)cc1: f
- Cn1ncc(-c2ccc3c(c2)NC(=O)CO3)c1-c1ccc(F)cc1: f
- Cc1[nH]nc(-c2ccc3c(c2)NC(=O)CO3)c1-c1ccc(F)cc1: f
- CCn1nc(C)c(-c2ccc3c(c2)NC(=O)CO3)c1-c1ccc(F)cc1: f
- Cc1nn(Cc2ccncc2)c(-c2ccc(F)cc2)c1-c1ccc2c(c1)NC(=O)CO2: f
- Cc1nn(Cc2ccccc2)c(-c2ccc(F)cc2)c1-c1ccc2c(c1)NC(=O)CO2: t
- Cc1nn(CCCCO)c(-c2ccc(F)cc2)c1-c1ccc2c(c1)NC(=O)CO2: t
- Cc1nn(Cc2ccccn2)c(-c2ccc(F)cc2)c1-c1ccc2c(c1)NC(=O)CO2: f
- Cc1nn(CCC#N)c(-c2ccc(F)cc2)c1-c1ccc2c(c1)NC(=O)CO2: f
- Cc1nn(CCNS(C)(=O)=O)c(-c2ccc(F)cc2)c1-c1ccc2c(c1)NC(=O)CO2: f
- Cc1nn(CC(F)(F)CO)c(-c2ccc(F)cc2)c1-c1ccc2c(c1)NC(=O)CO2: t
- Cc1nn(CC(C)C)c(-c2ccc(F)cc2)c1-c1ccc2c(c1)NC(=O)CO2: t
- Cc1nn(C)c(-c2ccc(F)cc2)c1-c1ccc2c(c1)NC(=O)CO2: t
- CC(=O)NCCn1nc(C)c(-c2ccc3c(c2)NC(=O)CO3)c1-c1ccc(F)cc1: f
- CCCCn1nc(C)c(-c2ccc3c(c2)NC(=O)CO3)c1-c1ccc(F)cc1: t
- Cc1nn(CC(F)(F)CCO)c(-c2ccc(F)cc2)c1-c1ccc2c(c1)NC(=O)CO2: t

====

assay target: UniProt:P06401
Sequence (P06401 whole entry): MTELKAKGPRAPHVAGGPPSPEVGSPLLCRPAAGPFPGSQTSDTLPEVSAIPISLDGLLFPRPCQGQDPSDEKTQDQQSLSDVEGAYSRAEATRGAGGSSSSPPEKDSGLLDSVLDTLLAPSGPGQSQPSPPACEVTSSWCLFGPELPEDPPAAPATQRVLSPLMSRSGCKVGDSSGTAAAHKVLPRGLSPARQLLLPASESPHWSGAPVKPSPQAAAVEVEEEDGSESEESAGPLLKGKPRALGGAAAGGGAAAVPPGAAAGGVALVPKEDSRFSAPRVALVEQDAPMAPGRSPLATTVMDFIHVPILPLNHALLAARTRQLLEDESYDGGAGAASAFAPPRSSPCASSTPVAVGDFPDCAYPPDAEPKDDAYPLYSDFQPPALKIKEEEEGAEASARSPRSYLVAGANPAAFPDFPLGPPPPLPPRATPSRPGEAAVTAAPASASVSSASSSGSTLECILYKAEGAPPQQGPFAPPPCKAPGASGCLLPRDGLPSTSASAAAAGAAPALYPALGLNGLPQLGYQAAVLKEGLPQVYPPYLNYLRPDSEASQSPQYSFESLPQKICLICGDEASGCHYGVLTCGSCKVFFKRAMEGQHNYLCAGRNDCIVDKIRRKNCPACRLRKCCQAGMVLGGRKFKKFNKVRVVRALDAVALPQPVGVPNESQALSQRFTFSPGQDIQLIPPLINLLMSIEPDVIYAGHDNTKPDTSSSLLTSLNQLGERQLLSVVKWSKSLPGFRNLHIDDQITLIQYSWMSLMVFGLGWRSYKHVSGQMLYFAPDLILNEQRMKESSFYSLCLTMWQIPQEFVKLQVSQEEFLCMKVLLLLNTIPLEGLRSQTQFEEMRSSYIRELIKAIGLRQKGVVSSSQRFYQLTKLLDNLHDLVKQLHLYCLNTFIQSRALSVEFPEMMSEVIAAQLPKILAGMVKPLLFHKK
measurement protocol: Displacement of [[3H]-Progesterone from progesterone receptor (unknown origin) expressed in 293 cells after 16 hrs by scintillation counting
observation type: IC50

- Cc1nn(CCCC(F)(F)F)c(-c2ccc(F)cc2)c1-c1ccc2c(c1)NC(=O)CO2: 6.8 µM
- Cc1nn(CCCCO)c(-c2ccc(F)cc2)c1-c1ccc2c(c1)NC(=O)CO2: > 10 µM
- Cc1nn(C)c(-c2ccc(F)cc2)c1-c1ccc2c(c1)NC(=O)CO2: 9.8 µM
- Cc1nn(CCNS(C)(=O)=O)c(-c2ccc(F)cc2)c1-c1ccc2c(c1)NC(=O)CO2: > 10 µM

====

measurement protocol: Mean residence time in Sprague-Dawley rat at 3 mg/kg, po
Type: ADME, organism-based
Set-up: dose 3 mg/kg, route oral
condition label: in vivo
observation type: MRT (h)

* Cc1nn(CC(F)(F)CO)c(-c2ccc(F)cc2)c1-c1ccc2c(c1)NC(=O)CO2 | 3.77

====

In this section, each of the compounds is paired with its reported pIC50.
assay target: Glucocorticoid receptor (Homo sapiens)
Sequence (P04150 whole entry, looked up): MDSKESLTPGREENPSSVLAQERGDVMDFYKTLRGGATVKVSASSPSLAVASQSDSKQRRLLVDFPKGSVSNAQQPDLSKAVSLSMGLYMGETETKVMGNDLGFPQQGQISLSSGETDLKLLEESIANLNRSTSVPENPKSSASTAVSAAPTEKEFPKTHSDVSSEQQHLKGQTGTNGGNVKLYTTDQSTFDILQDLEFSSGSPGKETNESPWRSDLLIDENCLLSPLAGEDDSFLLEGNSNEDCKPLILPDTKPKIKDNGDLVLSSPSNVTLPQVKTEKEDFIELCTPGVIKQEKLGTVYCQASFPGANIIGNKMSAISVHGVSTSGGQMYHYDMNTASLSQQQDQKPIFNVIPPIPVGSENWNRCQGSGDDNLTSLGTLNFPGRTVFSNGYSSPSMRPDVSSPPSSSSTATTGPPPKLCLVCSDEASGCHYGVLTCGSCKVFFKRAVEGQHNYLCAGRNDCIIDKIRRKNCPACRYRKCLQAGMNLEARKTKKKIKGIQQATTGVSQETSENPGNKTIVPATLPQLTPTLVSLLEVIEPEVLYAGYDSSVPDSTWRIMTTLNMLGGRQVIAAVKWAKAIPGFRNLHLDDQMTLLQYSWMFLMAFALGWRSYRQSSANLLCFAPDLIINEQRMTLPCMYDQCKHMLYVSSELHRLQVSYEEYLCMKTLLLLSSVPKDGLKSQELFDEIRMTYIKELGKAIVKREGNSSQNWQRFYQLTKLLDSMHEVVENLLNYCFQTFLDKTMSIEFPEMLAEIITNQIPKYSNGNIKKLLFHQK
pIC50: −log10 of the molar value.
observation type: pIC50

• Cc1onc(-c2ccc3c(c2)NC(=O)CO3)c1-c1ccc(F)cc1 = < 5.00
• Cc1nn(CCCO)c(-c2ccc(F)cc2)c1-c1ccc2c(c1)NC(=O)CO2 = < 5.00
• Cn1ncc(-c2ccc3c(c2)NC(=O)CO3)c1-c1ccc(F)cc1 = < 5.00
